# protocol: protein stability index of a GFP-peptide fusion (yeast GPS) (PSI 1-4); higher = more stable; sorted into four equal gates, so the index is relative within each strain
# assay_conditions: pdr5∆
Below, each entry is listed with its recorded protein stability index.
quantity: protein stability index

> print(dat)
                     record.sequence  assay.result
 1          IMQEAGLRAVRKNRYVI [RPT3]          2.97
 2          MVTSNVVLVSGEGERFT [SKP1]          2.56
 3          FMTKLLEVANDLQLLYV [IRR1]          1.98
 4          QQQQQFRHHVQIQQQQQ [SNF5]          1.76
 5          LESGKETALEFLEKEKQ [SMC4]          3.46
 6         VSSKCNDIHLRFMRFLA [ECM29]          2.38
 7  SANERLFGNRPSMMAPL [YML031W/NDC1]          2.63
 8          SSFKEDCLSFAPTLSQT [SSN2]          2.67
 9         ELYSFQQLVDSEKRLDH [SNF12]          2.26
10          NPFEDDMDGVDFNQAFE [BRN1]          3.21
11          EFIYLTKVLQFAAKQRQ [SNF2]          1.28
12          LPSPESLKTKLNSNIRA [SNF5]          1.71
13         LNTFHFAGVASKKVTSG [RPO21]          3.13
14          NYLRQQCNYSSLVFNRK [PRE5]          2.94
15         PQQAQQQPNPLHGLTPT [GAL11]          2.95
16          KSTDNSAIRQVFERFKT [IRR1]           2.7
17        RAVKEIKKFAKLHMGTD [RPL31A]          1.32
18          DTLDGDLMDDMSDISDL [RPN3]          2.69
19         SSLVQKGLETIDNGAES [RPC53]          3.02
20          NYNRIAKICALLFFNFS [NUT1]           1.8
21        GKRIAYVYRASKEVRGS [RPL33A]          2.57
22          GELLHHPIMETIVNDSN [RPN9]          2.77
23          VNAPLPTPFKVDDNVDF [RPN2]          2.75
24          LLKLERKKTEAVARLKS [SNF2]          2.14
25          KDFIENVNNRFDNFLTE [BRN1]          3.04
26         VISIVGGHSLEEISFSL [PRP28]          2.73
27          KIGDLGLARKFHNMLQT [SSN3]          3.14
28          VATEPLLDILVKGETRI [PRP8]          2.41
29          KEVSSFLMGIFNSVVNL [MTR3]          2.91
30        CRVDFKNPHDIIEGINA [RPL12A]          2.45
31          HVQFRLGNVDAFQLADG [PRP8]          2.79
